Origin of values: PubChem BioAssay

- protocol summary: rapamycin-like changes in RPL19A-GFP expression – cell-based, S. cerevisiae, multiplex flow cytometry, primary screen (AID 1862);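 further: lower values mimic rapamycin by blocking the RPL19A rise seen in DMSO cells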
- experimental conditions: S. cerevisiae RPL19A-GFP strain, flow cytometry fluorescence, 3 h; at 10 µM; hits give low values
Inconclusive results are not listed.
quantity: percent of DMSO control GFP (%)
Quick reminder: number only, in %, skip the unit.

See these solved cases before continuing.
[
  {
    "compound": "CC(C)C[C@H]1C(=O)N2CCC[C@H]2[C@]2(O)O[C@](NC(=O)[C@@H]3C=C4c5cccc6[nH]c(Br)c(c56)CC4N(C)C3)(C(C)C)C(=O)N12 (stereo not given in full)",
    "value measured": 106
  },
  {
    "compound": "CC(=O)CCc1c(C)c2cccc(C)c2[nH]c1=O",
    "value measured": 104
  },
  {
    "compound": "S=C(c1ccc2c(c1)OCO2)N1CCCCC1",
    "value measured": 101
  }
]

The recorded percent of DMSO control GFP for entry COc1ccccc1N1CCN(CC(O)COc2cccc3ccccc23)CC1 (stereo not given) equals 102

The recorded percent of DMSO control GFP for entry CCOC(=O)C(=O)N1CCN(c2ccccc2OC)CC1 equals 97.9

The recorded percent of DMSO control GFP for entry CCNC(=O)c1c(N)sc2c1CCCCC2 equals 103

The recorded percent of DMSO control GFP for entry Cc1ccc2c(c1)C1(C(=O)N2)N2CCCC2C(C(=O)c2ccc3ccccc3c2)C12C(=O)Nc1ccccc12 (stereo not given) equals 107

The recorded percent of DMSO control GFP for entry OCCN(Cc1nc(-c2ccc3c(c2)OCO3)no1)Cc1cccs1 equals 97.6

The recorded percent of DMSO control GFP for entry CC(=O)NC(Cc1c[nH]c2ccccc12)C(=O)N/N=C/c1ccccc1 (stereo not given) equals 98.6

The recorded percent of DMSO control GFP for entry Cn1c(Oc2ccc3c(c2)OCO3)nc2c1c(=O)n(Cc1ccccc1)c(=O)n2C equals 98.7

###

- protocol summary: AML differentiation inducers, ER-HoxA9 marrow cells – cell-based, GFP/MAC1 double positive, flow cytometry, validation set, primary screen (AID 588685);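 further: compound exposure lasts four days before antibody staining and flow analysis; 0% = DMSO wells and 100% = 5 µM fulvestrant positive control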
- experimental conditions: hits give high values, normalized: vehicle 0, fulvestrant 100
Peptide text beside a SMILES is read from it.
The following compounds are shown together with reported differentiation response values.
Quick reminder: number only, in %, skip the unit.

[
  {
    "compound": "CCOC(=O)n1c(=O)oc2ccccc21",
    "differentiation response [%]": -4.99
  },
  {
    "compound": "COc1cccc(N2C(=O)CC(c3c[nH]c4ccccc34)C2=O)c1 (configuration not stated)",
    "differentiation response [%]": -13.3
  },
  {
    "compound": "COc1cc(OC)cc(C(C)=O)c1",
    "differentiation response [%]": -6.96
  },
  {
    "compound": "CCSC(=O)CCCCCCCCCCCO",
    "differentiation response [%]": -13.9
  },
  {
    "compound": "COc1cc(-c2cccs2)cc(=O)c2c(C)oc(C)c12",
    "differentiation response [%]": 4
  }
]

The recorded differentiation response for entry COc1cc2c(cc1OC)C(c1ccc(-c3cc(Cl)ccc3Cl)o1)=NCC2 equals -26.4

The recorded differentiation response for entry CCn1cc(C(=O)O)c(=O)c2ccc(C)nc21 equals -4.57

The recorded differentiation response for entry CCC(C)NCCOc1ccc(C(C)(C)c2ccccc2)cc1 (configuration not stated) equals 9.04

The recorded differentiation response for entry COc1cccc(=O)c2c(C)n(CC(=O)c3ccccc3)c(C)c12 equals -2.03

The recorded differentiation response for entry COc1cc(CC(=O)NCCc2ccc(S(N)(=O)=O)cc2)cc(OC)c1OC equals 0.92

The recorded differentiation response for entry CC(=O)NC(CC(C)C)C(=O)NC(Cc1ccccc1)C(N)=O (stereo not drawn) (Ac-Leu-Phe-NH2; configuration not given here) equals -4.57

The recorded differentiation response for entry CN=C(NC#N)NCCSCc1nc[nH]c1C equals -10.4
